- Tested on: NL43 HIV-1 laboratory strain
- runDescription: NL43 HIV-1 laboratory strain replication assay with HelaCD4+β-Gal indicator cells (P4 cells), CPRG development, CalcuSyn analysis
- Format: cell-based
- conditionSet: Table 8, Ratio 1:2 series with ZVD, drug alone, Mean; read-out: IC50 FZ41, drug alone
measure: IC50 (µM)
One number for each entry, in µM.

Data point: COc1cc(C=Cc2ccc3ccc(C(=O)O)c(O)c3n2)cc(O)c1O [BA011FZ041] ; IC50 = 1.7

----------
- System: NL43 HIV-1 laboratory strain
- runDescription: NL43 HIV-1 laboratory strain replication assay with HelaCD4+β-Gal indicator cells (P4 cells), CPRG development, CalcuSyn analysis
- Assay type: cell-based
- conditionSet: in the mix with L-731,988, Ratio 1:1, Mean; read-out: IC50 FZ41, in the mix
measure: IC50 (nM)
Answers are plain numbers, in nM.

Data point: COc1cc(C=Cc2ccc3ccc(C(=O)O)c(O)c3n2)cc(O)c1O ; IC50 = 900

----------
- System: NL43 HIV-1 laboratory strain
- runDescription: NL43 HIV-1 laboratory strain replication assay with HelaCD4+β-Gal indicator cells (P4 cells), CPRG development, CalcuSyn analysis
- Type: cell-based
- conditionSet: Human immunodeficiency virus 1, NL43, Table 6, Ratio 2:1 series, drug alone, Mean; read-out: IC50 Nev, drug alone
measure: pIC50
Numbers only, as −log10 of the molar value.

Data point: Cc1ccnc2c1NC(=O)c1cccnc1N2C1CC1 ; pIC50 = 7.41

----------
- Tested on: NL43 HIV-1 laboratory strain
- runDescription: NL43 HIV-1 laboratory strain replication assay with HelaCD4+β-Gal indicator cells (P4 cells), CPRG development, CalcuSyn analysis
- Format: cell-based
- conditionSet: Human immunodeficiency virus 1, NL43, in the mix with FZ41, Ratio 1:1, Mean; read-out: IC50 ZVD, in the mix
measure: pIC50
Numbers only, as −log10 of the molar value.

Data point: Cc1cn([C@H]2C[C@H](N=[N+]=[N-])[C@@H](CO)O2)c(=O)[nH]c1=O ; pIC50 = 7.80

----------
- Test system: NL43 HIV-1 laboratory strain
- runDescription: NL43 HIV-1 laboratory strain replication assay with HelaCD4+β-Gal indicator cells (P4 cells), CPRG development, CalcuSyn analysis
- Type: cell-based
- conditionSet: Human immunodeficiency virus 1, NL43, in the mix with FZ41, Ratio 1:2, Mean; read-out: IC50 ZVD, in the mix
measure: IC50 (nM)
One number for each entry, in nM.

Data point: Cc1cn([C@H]2C[C@H](N=[N+]=[N-])[C@@H](CO)O2)c(=O)[nH]c1=O ; IC50 = 28

# credit: patent US20080280849A1
